# Test system: HepG2
# protocol: Antiproliferative activity against human HepG2 cells assessed as reduction in cell viability after 48 hrs by MTT assay
# Format: functional, cell-based
# condition_label: HepG2, 48 h
readout_kind: log10 IC50 (log10 of the value in nM)

{"columns": ["compound_smiles", "value_reported"],
 "data": [
  ["COc1cc([C@@H]2c3cc4c(cc3[C@@H](Nc3ccc5cn[nH]c5c3)[C@H]3COC(=O)[C@H]23)OCO4)cc(OC)c1OC", 3.28],
  ["COc1cc([C@@H]2c3cc4c(cc3[C@@H](Nc3cccc5cc[nH]c35)[C@H]3COC(=O)[C@H]23)OCO4)cc(OC)c1OC", 3.40],
  ["COc1cc([C@@H]2c3cc4c(cc3[C@@H](Nc3cccc5cccnc35)[C@H]3COC(=O)[C@H]23)OCO4)cc(OC)c1OC", 3.66],
  ["COc1cc2c(c(OC)c1OC)-c1ccc(OC)c(=O)cc1[C@@H](NC(C)=O)CC2", 3.76],
  ["COc1cc([C@@H]2c3cc4c(cc3[C@@H](Nc3ccc5[nH]ccc5c3)[C@H]3COC(=O)[C@H]23)OCO4)cc(OC)c1OC", 2.95],
  ["COc1cc([C@@H]2c3cc4c(cc3[C@@H](Nc3ccc5cc[nH]c5c3)[C@H]3COC(=O)[C@H]23)OCO4)cc(OC)c1OC", 2.00],
  ["COC(=O)Nc1nc2cc(C(=O)c3cccs3)ccc2[nH]1", 2.60],
  ["COc1cc([C@@H]2c3cc4c(cc3[C@@H](Nc3cccc5[nH]ncc35)[C@H]3COC(=O)[C@H]23)OCO4)cc(OC)c1OC", 3.08]
]}

Reference for the values: ChEMBL document CHEMBL4346667
